Data provenance: the supplement of paper PMC10065799

Biological target: Jak2 (UniProt O60674)
Sequence (O60674 whole entry, looked up): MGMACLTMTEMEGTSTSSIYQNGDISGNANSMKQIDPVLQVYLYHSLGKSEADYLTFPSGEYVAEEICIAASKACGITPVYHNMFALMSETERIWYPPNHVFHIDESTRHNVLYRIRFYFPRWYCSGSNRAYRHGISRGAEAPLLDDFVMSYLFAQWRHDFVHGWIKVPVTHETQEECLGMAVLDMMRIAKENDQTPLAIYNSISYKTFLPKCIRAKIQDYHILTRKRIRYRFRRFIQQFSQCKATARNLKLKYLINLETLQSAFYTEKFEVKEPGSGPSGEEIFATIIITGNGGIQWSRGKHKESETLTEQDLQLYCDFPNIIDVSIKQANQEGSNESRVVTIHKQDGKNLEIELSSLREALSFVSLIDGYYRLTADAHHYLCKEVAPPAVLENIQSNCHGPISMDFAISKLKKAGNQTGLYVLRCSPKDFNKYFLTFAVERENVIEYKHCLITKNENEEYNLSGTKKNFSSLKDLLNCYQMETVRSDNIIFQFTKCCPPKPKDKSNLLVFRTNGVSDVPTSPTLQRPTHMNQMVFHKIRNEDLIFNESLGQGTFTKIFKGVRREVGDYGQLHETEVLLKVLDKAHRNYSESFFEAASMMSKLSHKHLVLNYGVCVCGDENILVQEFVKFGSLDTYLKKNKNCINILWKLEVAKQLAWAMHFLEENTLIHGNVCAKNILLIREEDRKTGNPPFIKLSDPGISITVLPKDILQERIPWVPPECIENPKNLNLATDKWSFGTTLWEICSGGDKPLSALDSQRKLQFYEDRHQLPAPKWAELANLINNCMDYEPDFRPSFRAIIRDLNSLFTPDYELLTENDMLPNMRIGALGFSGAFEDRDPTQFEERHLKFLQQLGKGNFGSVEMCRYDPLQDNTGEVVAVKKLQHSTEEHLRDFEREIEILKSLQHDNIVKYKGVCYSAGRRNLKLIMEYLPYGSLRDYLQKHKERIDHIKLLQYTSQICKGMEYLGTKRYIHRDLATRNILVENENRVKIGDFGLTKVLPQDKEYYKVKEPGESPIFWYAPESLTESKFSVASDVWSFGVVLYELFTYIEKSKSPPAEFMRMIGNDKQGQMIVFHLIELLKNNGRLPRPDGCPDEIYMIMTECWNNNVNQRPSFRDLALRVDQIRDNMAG
Test: phosphorylation enrichment, bacterial display (enrichment ratio); higher = better substrate or ligand; peptides without Tyr show the background;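 further: 11-residue human phosphosite peptides and single-mutation variants displayed on the E. coli surface, counted by deep sequencing, each peptide's frequency after selection divided by its frequency in the unselected input library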;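 further: frequency after pTyr selection over input frequency; kinase dosed for 20-30% of maximal phosphorylation in three min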
Exercise: state measured phosphorylation enrichment for each of the sequences provided.
Answers are plain numbers.

Solved entries:
{"entry sequence": "CTTIHYNNMCN [TP53_Y234_Y236N]", "phosphorylation enrichment": 0.551}
{"entry sequence": "FEKNVYVDKNL [PTCHD3_Y688]", "phosphorylation enrichment": 0.732}

Batch request: phosphorylation enrichment for each of the following sequences.
1. QDIMAYRGREV [BCL6_Y157]
2. NACGLYHTMNG [GATA5_Y216_K218T]

OUTPUT:
[0.937, 0.956]
